Target: UniProt P43235
Sequence (P43235 whole entry): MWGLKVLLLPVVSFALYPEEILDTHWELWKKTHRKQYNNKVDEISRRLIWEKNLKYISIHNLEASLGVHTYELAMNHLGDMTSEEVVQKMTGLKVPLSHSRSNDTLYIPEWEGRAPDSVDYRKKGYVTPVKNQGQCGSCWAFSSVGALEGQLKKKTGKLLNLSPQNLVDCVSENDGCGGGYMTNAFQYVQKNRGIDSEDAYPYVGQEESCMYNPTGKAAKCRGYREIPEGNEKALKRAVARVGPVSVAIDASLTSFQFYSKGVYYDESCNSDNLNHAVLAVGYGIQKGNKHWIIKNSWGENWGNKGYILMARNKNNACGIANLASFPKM
Answer each item with its documented IC50.

// query Find the recorded IC50 belonging to CC(C)=CCC/C(C)=C/Cc1c(CCC(=O)c2ccc(O)cc2O)cc(-c2cc(O)c(O)c(C/C=C(\C)CCC=C(C)C)c2CCC(=O)c2ccc(O)cc2O)c(O)c1O [CYCLOALTILISIN 6] and report it.
// result 98 nM

// query One more compound: CC(C)=CCCC1(C)C=Cc2c(cc(O)c3c2OC(c2ccc(O)cc2)CC3=O)O1 (configuration not stated) [CYCLOALTILISIN 7]
// result 840 nM
